Here's what we have: IC50 numbers for Human CARM1 (PRMT4) (Homo sapiens, UniProt Q86X55).

Use these answered entries as a reference point.
compound="CNCCN(C)Cc1cn(CCC(O)CO)nc1-c1ccc(F)cc1 (centres unmarked)" property_measured=IC50 assay_value="3.01 to 10 µM"
compound=CNCCN(C)Cc1cn(CC(=O)O)nc1-c1ccc(OC(C)C)cc1 property_measured=IC50 assay_value="> 10 µM"
compound=CNCCN(C)Cc1c[nH]nc1-c1ccc(F)c(F)c1 property_measured=IC50 assay_value="0.101 to 1 µM"
compound=COc1ccc(-c2n[nH]cc2CN(C)CCN)cc1 property_measured=IC50 assay_value="1.01 to 3 µM"

Value (IC50, Human CARM1 (PRMT4) (Homo sapiens, UniProt Q86X55)) for record "CNCCN(C)Cc1c[nH]nc1-c1ccc(F)cc1F" = 3.01 to 10 µM

* * *

// Full-length human PRMT6 (Homo sapiens, UniProt Q96LA8) IC50 records

// below: answered molecules
chem_smiles=CN(CCN)Cc1n[nH]cc1-c1ccc(OC(F)(F)F)cc1 property_measured=IC50 assay_value="< 100 nM"
chem_smiles=CNCCN(C)Cc1cn[nH]c1-c1cc(F)cc(F)c1 property_measured=IC50 assay_value="< 100 nM"
chem_smiles=CNCCN(C)Cc1c[nH]nc1-c1ccccc1F property_measured=IC50 assay_value="< 100 nM"

Query "CCN(CCN)Cc1c[nH]nc1-c1ccc(F)cc1" on Full-length human PRMT6 (Homo sapiens, UniProt Q96LA8); IC50 returned: < 100 nM

Kindly note: Full-length human PRMT6 (Homo sapiens, UniProt Q96LA8), "CN(CCN)Cc1c[nH]nc1-c1cccc(F)c1" , IC50 value reported: < 100 nM

Reading of IC50 for "CC(C)CN1C(=O)COc2ccc(-c3n[nH]cc3CN(C)CCN)cc21" with Full-length human PRMT6 (Homo sapiens, UniProt Q96LA8): 101 to 1000 nM

Note to self: IC50 of "CNCCN(C)Cc1c[nH]nc1-c1ccc(F)cc1" with Full-length human PRMT6 (Homo sapiens, UniProt Q96LA8) was < 100 nM

* * *

Target: Human CARM1 (PRMT4) (Homo sapiens, UniProt Q86X55)
Sequence (Q86X55 with tags, fused parts or gaps isoform Q86X55-1): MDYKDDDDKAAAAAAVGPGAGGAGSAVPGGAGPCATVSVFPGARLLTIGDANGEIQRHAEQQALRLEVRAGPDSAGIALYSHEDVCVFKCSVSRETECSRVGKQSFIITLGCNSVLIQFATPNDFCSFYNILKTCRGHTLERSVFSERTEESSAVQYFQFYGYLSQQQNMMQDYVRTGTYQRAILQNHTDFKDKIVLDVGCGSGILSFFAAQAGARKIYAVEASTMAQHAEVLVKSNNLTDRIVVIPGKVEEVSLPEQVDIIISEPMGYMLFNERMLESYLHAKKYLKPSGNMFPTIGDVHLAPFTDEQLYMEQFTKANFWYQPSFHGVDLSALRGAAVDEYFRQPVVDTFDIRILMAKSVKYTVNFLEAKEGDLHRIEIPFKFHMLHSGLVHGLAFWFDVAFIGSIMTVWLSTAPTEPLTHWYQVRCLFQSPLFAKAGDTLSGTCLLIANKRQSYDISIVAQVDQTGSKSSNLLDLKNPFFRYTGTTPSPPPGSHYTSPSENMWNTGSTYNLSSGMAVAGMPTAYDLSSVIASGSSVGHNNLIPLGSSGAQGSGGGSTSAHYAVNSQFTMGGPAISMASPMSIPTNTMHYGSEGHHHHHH
Where a name gives a salt, the structure may show the parent alone.
Reported IC50 values for the following compounds.

compound=CN(CCN)Cc1c[nH]nc1-c1ccc(F)cc1F property_measured=IC50 assay_value="3.01 to 10 µM"
compound="CNCCN(C)Cc1cn(C2CCC2)nc1-c1ccc(OC(C)C)cc1 [Compound 254, hydrochloride]" property_measured=IC50 assay_value="0.101 to 1 µM"
compound=CN(CCN)Cc1c[nH]nc1-c1ccc(N2CCNCC2)cc1 property_measured=IC50 assay_value="3.01 to 10 µM"
compound=CN(CCN)Cc1c[nH]nc1-c1ccc(C(F)(F)F)cc1Cl property_measured=IC50 assay_value="> 10 µM"
compound=CN(CCN)Cc1c[nH]nc1-c1ccccc1C#N property_measured=IC50 assay_value="> 10 µM"
compound=CNCCN(C)Cc1c[nH]nc1-c1ccccc1OC property_measured=IC50 assay_value="1.01 to 3 µM"
compound=C=CCn1cc(CN(C)CCNC)c(-c2ccc(OC(C)C)cc2)n1 property_measured=IC50 assay_value="0.101 to 1 µM"
compound=CNCCN(C)Cc1c[nH]nc1-c1cccc(O)c1 property_measured=IC50 assay_value="1.01 to 3 µM"
compound=Cc1ccc(-c2n[nH]cc2CN(C)CCN)cc1Cl property_measured=IC50 assay_value="0.101 to 1 µM"

We now examine a further compound.
// IC50 lookup, compound = "CN(CCN1CCCC1)Cc1c[nH]nc1-c1ccc(C#N)cc1" , result: > 10 µM

* * *

target: Full-length human PRMT1 isoform 1 (Homo sapiens); construct: GST-tagged PRMT1; test: PRMT1 biochemical assay (3H-SAM Flashplate, peptide substrate)
Documented IC50 across a set of molecules

Some solved cases for reference:
molecule="CCn1ncc(CN(C)CCNC)c1-c1ccc(OC(C)C)cc1 [Compound 252]" assay_value="< 100 nM"
molecule="CNCCN(C)Cc1c[nH]nc1-c1ccc(Oc2cccc(C#N)c2)cc1 [Compound 261]" assay_value="< 100 nM"
molecule="CNCCN(C)Cc1c[nH]nc1-c1ccc(OCCCO)cc1 [Compound 236]" assay_value="< 100 nM"
molecule="CN(CCN)Cc1c[nH]nc1-c1ccc(Oc2ccc(F)cc2)cc1 [Compound 225]" assay_value="< 100 nM"
molecule="NCCN(CCO)Cc1c[nH]nc1-c1ccc(F)cc1 [Compound 171]" assay_value="101 to 1000 nM"
molecule="CNCCN(C)Cc1c[nH]nc1-c1cc(CC(C)C)cc(CC(C)C)c1 [Compound 281]" assay_value="< 100 nM"
molecule="CNCCN(C)Cc1c[nH]nc1-c1cc(Cl)c(OC(C)C)c(Cl)c1 [Compound 265]" assay_value="< 100 nM"
molecule="CNCCN(C)Cc1cnn(C2CC2)c1-c1ccc(F)cc1 [Compound 14]" assay_value="101 to 1000 nM"

Field IC50 (entry CN(CCN)Cc1cnn(CCO)c1-c1ccc(F)cc1 [Compound 65] ) reads 1010 to 3000 nM

* * *

Reported IC50 values follow for various compounds
target: Full-length human PRMT1 isoform 1 (Homo sapiens, UniProt Q99873); construct: GST-tagged PRMT1; made in house; host or cells: High Five insect cells (baculovirus, pFastBacI); experiment: PRMT1 biochemical assay (3H-SAM Flashplate, peptide substrate)
Sequence (Q99873 with tags, fused parts or gaps): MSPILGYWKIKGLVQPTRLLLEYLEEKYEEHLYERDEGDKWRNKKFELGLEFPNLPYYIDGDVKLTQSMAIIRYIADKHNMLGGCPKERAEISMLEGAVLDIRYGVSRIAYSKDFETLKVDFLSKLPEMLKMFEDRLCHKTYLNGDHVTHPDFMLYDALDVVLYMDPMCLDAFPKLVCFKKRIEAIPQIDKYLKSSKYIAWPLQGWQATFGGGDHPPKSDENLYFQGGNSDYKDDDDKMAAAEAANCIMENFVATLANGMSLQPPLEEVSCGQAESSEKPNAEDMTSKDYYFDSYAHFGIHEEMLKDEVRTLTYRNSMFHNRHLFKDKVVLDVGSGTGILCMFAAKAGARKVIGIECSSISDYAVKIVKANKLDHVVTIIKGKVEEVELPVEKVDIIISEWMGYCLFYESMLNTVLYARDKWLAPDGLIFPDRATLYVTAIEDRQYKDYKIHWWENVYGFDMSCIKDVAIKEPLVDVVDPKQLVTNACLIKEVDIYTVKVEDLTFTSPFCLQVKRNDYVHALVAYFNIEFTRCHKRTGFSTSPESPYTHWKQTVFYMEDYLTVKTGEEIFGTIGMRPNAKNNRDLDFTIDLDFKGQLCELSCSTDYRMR

Record excerpt, results attached:
compound=CN(CCN)Cc1c[nH]nc1-c1ccc(Oc2ccccc2)c(C#N)c1 property_measured=IC50 assay_value="< 100 nM"
compound=CN(CCN)Cc1c[nH]nc1-c1ccc(C(F)(F)F)cc1 property_measured=IC50 assay_value="< 100 nM"
compound=CNCCN(C)Cc1c[nH]nc1-c1ccc(F)cc1F property_measured=IC50 assay_value="101 to 1000 nM"
compound=CNCCN(C)Cc1n[nH]cc1-c1cc(OC(C)C)cc(C(C)C)c1 property_measured=IC50 assay_value="101 to 1000 nM"
compound=CN(CCNC1CC1)Cc1c[nH]nc1-c1ccc(C#N)cc1 property_measured=IC50 assay_value="1010 to 3000 nM"

For reference, reported IC50 for "CNCCN(C)Cc1c[nH]nc1-c1cc(Cl)c(OCC2CC2)c(Cl)c1" stands at < 100 nM

Documented IC50 of CNCCN(C)Cc1cnn(CCCC(O)CO)c1-c1ccc(F)cc1 (stereo not drawn) : 101 to 1000 nM

Reported IC50 ( "CNCCN(C)Cc1n[nH]cc1-c1ccc(Oc2ccccc2)c(C(=O)N(C)C)c1" ) = < 100 nM

Sure, the documented IC50 for "CNCCN(C)Cc1c[nH]nc1-c1cccc(C#N)c1" is 101 to 1000 nM

* * *

target: Full-length human PRMT8 (Homo sapiens, UniProt Q9NR22); construct: Full-length human PRMT8 (NM_019854.4) isoform 1 transcript clone; test: PRMT8 biochemical assay (3H-SAM Flashplate, peptide substrate)
Sequence (Q9NR22 whole entry, canonical isoform): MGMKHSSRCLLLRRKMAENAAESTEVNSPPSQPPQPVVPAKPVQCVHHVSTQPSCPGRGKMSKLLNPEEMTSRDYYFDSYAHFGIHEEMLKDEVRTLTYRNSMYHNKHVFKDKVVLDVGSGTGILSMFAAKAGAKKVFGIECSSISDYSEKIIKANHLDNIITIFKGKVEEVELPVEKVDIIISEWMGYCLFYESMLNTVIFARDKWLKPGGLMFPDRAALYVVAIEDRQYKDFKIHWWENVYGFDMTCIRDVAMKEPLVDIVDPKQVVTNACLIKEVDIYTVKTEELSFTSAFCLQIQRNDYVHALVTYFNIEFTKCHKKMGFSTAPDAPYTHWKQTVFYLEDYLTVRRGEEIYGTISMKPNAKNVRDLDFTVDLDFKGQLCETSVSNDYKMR
property.measured: IC50

Recorded results for 4 compounds are shown here.
compound="CN(CCN)Cc1c[nH]nc1-c1ccccc1F [Compound 72]" test_system="Full-length human PRMT8 (Homo sapiens, UniProt Q9NR22)" assay_value="3.01 to 10 µM"
compound="CN(CCN)Cc1cnn(CCO)c1-c1ccc(F)cc1 [Compound 65]" test_system="Full-length human PRMT8 (Homo sapiens, UniProt Q9NR22)" assay_value="3.01 to 10 µM"
compound="CNCCN(C)Cc1cn(C2CCCCC2)nc1-c1ccc(OC(C)C)cc1 [Compound 256]" test_system="Full-length human PRMT8 (Homo sapiens, UniProt Q9NR22)" assay_value="1.01 to 3 µM"
compound="CN(CCN)Cc1c[nH]nc1-c1ccc(Oc2cccc(F)c2)cc1 [Compound 205]" test_system="Full-length human PRMT8 (Homo sapiens, UniProt Q9NR22)" assay_value="0.101 to 1 µM"

Next up:
Notebook: CNCCN(C)Cc1c[nH]nc1-c1ccccc1C(F)(F)F [Compound 38] , IC50 read as 3.01 to 10 µM

Data provenance is patent US9346761B2.
